target: T1, membrane-bound B Lymphocyte Stimulator on U937 plasma membrane preparations (human, UniProt Q9Y275 1-285); experiment: phage ELISA
T1 construct: Natural protein in plasma membrane fractions of the human cell line U937 coated on ELISA plates; also called U937 plasma membranes; U937 membranes
T1 sequence (Q9Y275 whole entry): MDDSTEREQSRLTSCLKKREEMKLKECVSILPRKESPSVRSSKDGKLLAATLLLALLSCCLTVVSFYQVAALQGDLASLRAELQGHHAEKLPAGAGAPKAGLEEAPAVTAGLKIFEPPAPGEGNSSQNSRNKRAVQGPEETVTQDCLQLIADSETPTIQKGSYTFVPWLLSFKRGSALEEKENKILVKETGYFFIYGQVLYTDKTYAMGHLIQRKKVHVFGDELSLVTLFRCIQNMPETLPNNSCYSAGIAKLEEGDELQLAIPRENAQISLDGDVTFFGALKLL
MEASURED_PARAMETER: binding result

I008C03 (scFv) scFv: QMQLVRSGGGVVQPGRSLRLSCAASGFTFSSYGMHWVRQAPGKGLEWVSVTYSGGNTNYADSVRGRFTISRDNSKNTLYLQMNSLRAEDTAVYYCAREGSYDILTGYYVGVGRMDVWGKGTLVTVSSGGGGSGGGGSGGGGSSELTQDPAVSVALGQTVRITCQGDSLRSYYTNWFQQKPGQAPLLVVYAKNKRPSGIPDRFSGSSSGNTASLTITGAQAEDEADYYCNSRDSSGNHVVFGGGTKLTVLG | binds
I018C02 (scFv) scFv: QVQLQQSGSELKKPGASVIVSCKVSGYSLTKMSMHWVRQSPGEGLEWVGGIDPETRQPVYAQKFQGRVTITKDTSASAAYMELSSLGSEDTALYYCARATYDPLTGYSFDGFDIWGQGTLVTVSSGGGGSGGGGSGGGGSQSVLTQPASVSGSPGQSITISCTGTSSDVGGYNYVSWYQQHPGKAPKLMIYEGSKRPSGVSNRFSGSKSGNTASLTISGLQAEDEADYYCSSYTTRSTRVFGGGTKLTVLG | binds
I050B11 (scFv) scFv: QVQLVQSGVEVKKPGASVKVSCKASGYTFSNHGISWVRQAPGQGLEWVGWISGHDDSTKYAQKFQGRVTMTADTSTSTAYIELRSLKSDDTAVYYCARPFYDTLTSYVFQYFDHWGQGTMVTVSSGGGGSGGGGSGGGGSALETTLTQSPDTLSLSPGERATLSCRASQSVTRGWVAWYQQKPGQAPRLLMYGTSRRATGVPDRFSGSESGTDFTLTISRLEPEDFAVYYCQQYATSPRTFGQGTRLEIKR | binds
